# SGF Stability, % remaining, 1h per entry
METHOD_DESCRIPTION: Stability in simulated gastric fluid (SGF)
MEASUREMENT_CONTEXT: 10 μM, pH 1.2, room temperature, 1 h
Reply with just the number (in %).

Past entries and their recorded results:
>>> result("CON=C(C(=O)N[C@@H]1C(=O)N2C(C(=O)O)=C(CSc3cccc[n+]3[O-])CS[C@H]12)c1csc(N)n1 [TBBL-0000539]")
104.45
>>> result("CCc1nnc(SCC2=C(C(=O)O)N3C(=O)[C@@H](NC(=O)Cc4ccc(C5=NCCCN5)cc4)[C@H]3SC2)s1 [TBBL-0000317]")
90.44
>>> result("CNCc1ccccc1CC(=O)N[C@@H]1C(=O)N2C(C(=O)O)=C(CSc3nnnn3C)CS[C@H]12 [TBBL-0000468]")
101.42
>>> result("CC=CC(=O)OCC1=C(C(=O)O)N2C(=O)[C@@H](NC(=O)C(=NO)c3cccs3)[C@H]2SC1 [TBBL-0000058]")
94.94
>>> result("CCCc1nnc(SCC2=C(C(=O)O)N3C(=O)[C@@H](NC(=O)Cc4ccc(C(=N)N)cc4)[C@H]3SC2)s1 [TBBL-0000314]")
76.41
>>> result("Cn1c(SCC2=C(C(=O)O)N3C(=O)[C@@H](NC(=O)Cc4ccccc4CN)[C@H]3SC2)nnc(O)c1=O [TBBL-0000460]")
102.88
>>> result("NCc1ccccc1CC(=O)N[C@@H]1C(=O)N2C(C(=O)O)=C(CSc3nnnn3CCO)CS[C@H]12 [TBBL-0000656]")
87.12
>>> result("Cn1nnnc1SCC1=C(C(=O)O)N2C(=O)[C@@H](NC(=O)Cc3ccc(C4=NCCCN4)cc3)[C@H]2SC1 [TBBL-0000309]")
103.51

Would you kindly share the measured SGF Stability, % remaining, 1h for CC(=O)OCC1=C(C(=O)O)N2C(=O)[C@@H](NC(=O)CSc3ccncc3)[C@H]2SC1 [TBBL-0000063] ?
87.31

Would you kindly share the measured SGF Stability, % remaining, 1h for CCc1nnc(SCC2=C(C(=O)O)N3C(=O)[C@@H](NC(=O)Cc4ccc(C5=NCCN5)cc4)[C@H]3SC2)s1 [TBBL-0000310] ?
86.27

Would you kindly share the measured SGF Stability, % remaining, 1h for NCCSC=CC1=C(C(=O)O)N2C(=O)C(NC(=O)CSc3ccc(Cl)c(Cl)c3)C2SC1 (centres unmarked) [TBBL-0000306] ?
110.19

====

Test system: plasma proteins
METHOD_DESCRIPTION: Plasma protein binding (equilibrium dialysis), beagle dog
MEASUREMENT_CONTEXT: 2 μM
Please enter Fulfilled where % bound to plasma, Beagle Dog is greater than or equal to 30%, and Not fulfilled where it is lower.

>>> cat("CCCc1nnc(SCC2=C(C(=O)O)N3C(=O)[C@@H](NC(=O)Cc4ccc(C(=N)N)cc4)[C@H]3SC2)s1")
"Fulfilled"
>>> cat("CON=C(C(=O)N[C@@H]1C(=O)N2C(C(=O)O)=C(CSc3cccc[n+]3[O-])CS[C@H]12)c1csc(N)n1")
"Not fulfilled"
>>> cat("NCc1ccccc1CC(=O)N[C@@H]1C(=O)N2C(C(=O)O)=C(CSc3nnnn3CCO)CS[C@H]12")
"Not fulfilled"

Hello, I need to know if Cn1nnnc1SCC1=C(C(=O)O)N2C(=O)[C@@H](NC(=O)Cc3ccc(C4=NCCCN4)cc3)[C@H]2SC1 has measured % bound to plasma, Beagle Dog not below 30%. Thanks!
Not fulfilled

Hello, I need to know if O=C(O)C1=C(CSc2cccc[n+]2[O-])CS[C@@H]2[C@H](NC(=O)C(F)c3ccccc3)C(=O)N12 (stereo partly drawn) has measured % bound to plasma, Beagle Dog not below 30%. Thanks!
Fulfilled

Hello, I need to know if Cn1c(SCC2=C(C(=O)O)N3C(=O)[C@@H](NC(=O)Cc4ccccc4CN)[C@H]3SC2)nnc(O)c1=O has measured % bound to plasma, Beagle Dog not below 30%. Thanks!
Not fulfilled

Hello, I need to know if CC(=O)OCC1=C(C(=O)O)N2C(=O)[C@@H](NC(=O)CSc3ccncc3)[C@H]2SC1 has measured % bound to plasma, Beagle Dog not below 30%. Thanks!
Not fulfilled

Hello, I need to know if CNCc1ccccc1CC(=O)N[C@@H]1C(=O)N2C(C(=O)O)=C(CSc3nnnn3C)CS[C@H]12 has measured % bound to plasma, Beagle Dog not below 30%. Thanks!
Not fulfilled

====

METHOD_DESCRIPTION: in vivo
MEASUREMENT_CONTEXT: DHP-1 knockout, mouse, sc, 50 mg/kg
MEASUREMENT_TYPE: Tmax

Would you kindly share the measured Tmax for O=C(O)C1=C(CSc2cccc[n+]2[O-])CS[C@@H]2[C@H](NC(=O)/C(=N\Oc3ccccc3)c3ccco3)C(=O)N12 ?
15 to 30 min

====

Test system: Mtb H37Rv
METHOD_DESCRIPTION: MIC90 against replicating (R) Mtb H37Rv, with or without clavulanate
Assay type: cell-based, Mycobacterium tuberculosis
MEASUREMENT_CONTEXT: clavulanate 4 μg/mL, Table S4
MEASUREMENT_TYPE: Mtb H37Rv R + CLAV (MIC90) (µM)
Reply with just the number (in µM).

>>> result("CCCc1nnc(SCC2=C(C(=O)O)N3C(=O)[C@@H](NC(=O)Cc4ccc(C(=N)N)cc4)[C@H]3SC2)s1")
0.8
>>> result("CC(=O)OC(C(=O)N[C@@H]1C(=O)N2C(C(=O)O)=C(CSc3cccc[n+]3[O-])CS[C@H]12)c1ccccc1 (some centres unmarked)")
2.8
>>> result("CC(=O)OCC1=C(C(=O)O)N2C(=O)[C@@H](NC(=O)CSc3nc4ccccc4s3)[C@H]2SC1")
3.9
>>> result("CNCc1ccccc1CC(=O)N[C@@H]1C(=O)N2C(C(=O)O)=C(CSc3nnnn3C)CS[C@H]12")
5.4
>>> result("NCCSC=CC1=C(C(=O)O)N2C(=O)C(NC(=O)CSc3ccc(Cl)c(Cl)c3)C2SC1 (centres unmarked)")
0.3

Would you kindly share the measured Mtb H37Rv R + CLAV (MIC90) for CON=C(C(=O)N[C@@H]1C(=O)N2C(C(=O)O)=C(CSc3cccc[n+]3[O-])CS[C@H]12)c1csc(N)n1 ?
1.9

Would you kindly share the measured Mtb H37Rv R + CLAV (MIC90) for CCCn1nnnc1SCC1=C(C(=O)O)N2C(=O)[C@@H](NC(=O)Cc3ccc(C4=NCCN4)cc3)[C@H]2SC1 ?
0.8

Would you kindly share the measured Mtb H37Rv R + CLAV (MIC90) for O=C(Cn1cnnn1)N[C@@H]1C(=O)N2C(C(=O)O)=C(CSc3cccc[n+]3[O-])CS[C@H]12 ?
5.8

====

METHOD_DESCRIPTION: Stability in simulated gastric fluid (SGF)
MEASUREMENT_CONTEXT: simulated gastric fluid (SGF), pH 1.2
MEASUREMENT_TYPE: remaining at 24 h, 10 μM (%)
Reply with just the number (in %).

>>> result("C[C@@H](O)[C@H]1C(=O)N2C(C(=O)O)=C(S[C@@H]3CN[C@H](C(=O)Nc4cccc(C(=O)O)c4)C3)[C@H](C)[C@H]12 [Ertapenem, reference compound]")
0

Field: next molecule
Would you kindly share the measured remaining at 24 h, 10 μM for C[C@@H](O)[C@H]1C(=O)N2C(C(=O)O)=C(S[C@@H]3CN[C@H](C(=O)N(C)C)C3)[C@H](C)[C@H]12 [Meropenem, reference compound] ?
100

====

METHOD_DESCRIPTION: in vivo
MEASUREMENT_CONTEXT: female, 129sv DHP-1 knockout, mouse, sc, 50 mg/kg
MEASUREMENT_TYPE: Tmax
Give me the value, and tack the unit on after it.

>>> result("O=C(CCCC(NC(=O)c1ccc(Cl)cc1Cl)C(=O)O)N[C@@H]1C(=O)N2C(C(=O)O)=C(CSc3cccc[n+]3[O-])CS[C@H]12 (some centres unmarked)")
"30 min"
>>> result("O=C(O)C1=C(CSc2cccc[n+]2[O-])CS[C@@H]2[C@H](NC(=O)/C(=N\\Oc3ccccc3)c3ccco3)C(=O)N12")
"30 min"

Would you kindly share the measured Tmax for NC(C(=O)N[C@@H]1C(=O)N2C(C(=O)O)=C(CSc3cccc[n+]3[O-])CS[C@H]12)c1ccc(O)cc1 (some centres unmarked) ?
60 min

Would you kindly share the measured Tmax for CN(C)C(=S)SCC1=C(C(=O)O)N2C(=O)[C@@H](NC(=O)Cc3cccs3)[C@H]2SC1 ?
30 min

Would you kindly share the measured Tmax for C[C@@H](O)[C@H]1C(=O)N2C(C(=O)O)=C(S[C@@H]3CN[C@H](C(=O)N(C)C)C3)[C@H](C)[C@H]12 [Meropenem, reference compound] ?
30 min

Would you kindly share the measured Tmax for C=CC1=C(C(=O)O)N2C(=O)[C@@H](NC(=O)/C(=N\O)c3csc(N)n3)[C@H]2SC1 [Cefdinir, reference compound] ?
30 min

Would you kindly share the measured Tmax for O=C(Cc1cccs1)N[C@@H]1C(=O)N2C(C(=O)O)=C(CSc3cccc[n+]3[O-])CS[C@H]12 ?
60 min

Would you kindly share the measured Tmax for O=C(Cc1ccc(C2=NCCN2)cc1)N[C@@H]1C(=O)N2C(C(=O)O)=C(CSc3nncs3)CS[C@H]12 ?
30 min
